Measured composite z-score, listed per entry.
test system: Noggin (protein binding on small-molecule microarray); test: Noggin binders on small-molecule microarray, primary screen, biochemical, 635/667 nm fluorescence (AID 1095); settings: 635 nm fluorescence, higher = more signal;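 also: score merges 667 nm feature fluorescence with signal to noise over triplicate slides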

- molecule: "O=C(CS)NCCCCCCNC(=O)[C@H]1C[C@H]2C(=O)N[C@@H](Cc3ccccc3)C(=O)N2[C@H]1c1ccc(O)cc1"
  targetEntity: "Noggin (protein binding on small-molecule microarray)"
  composite z-score: 0.405
- molecule: "[N-]=[N+]=NCc1ccccc1C[C@]1(C(N)=O)N=C(c2ccc(OCCCO)cc2)O[C@H]1c1ccccc1"
  targetEntity: "Noggin (protein binding on small-molecule microarray)"
  composite z-score: -0.593
- molecule: "CCC[C@@H]1C[C@@]1(CCC)[C@@H](NC(=O)OCc1ccccc1)c1ccc(-c2ccccc2)cc1"
  targetEntity: "Noggin (protein binding on small-molecule microarray)"
  composite z-score: -0.0553
- molecule: "CC(C)[Si](C#CCCCC#N)(O[C@H](c1ccccc1)c1cn([C@H](CO)Cc2ccccc2)nn1)C(C)C"
  targetEntity: "Noggin (protein binding on small-molecule microarray)"
  composite z-score: 0.349
- molecule: "CC(C)C(CO)N1C(=O)[C@@H]2C3C(=O)OCCC/C=C\\[C@H]3OC23C=CCN(C(C)(C)C)C(=O)[C@@H]13 (some centres not stated)"
  targetEntity: "Noggin (protein binding on small-molecule microarray)"
  composite z-score: -0.733
- molecule: "[N-]=[N+]=NCc1ccccc1[C@H]1OC(c2ccc(OCCCO)cc2)=N[C@@]1(CCS(=O)(=O)c1ccccc1)C(=O)N1CCCCC1"
  targetEntity: "Noggin (protein binding on small-molecule microarray)"
  composite z-score: 0.876
- molecule: "O=C(NCC(F)(F)F)[C@@H]1c2ccccc2C(=O)N(Cc2ccc(OC(F)(F)F)cc2)[C@H]1c1ccc(CO)cc1"
  targetEntity: "Noggin (protein binding on small-molecule microarray)"
  composite z-score: 0.575

---

assay: basal 3T3-L1 adipocyte mitochondrial potential changes, profiling panel, cell-based, JC-1 fluorescence, 3T3-L1 adipocytes, 24 h, 100 nL compound (AID 1168); details: JC-1 mitochondrial fluorescence, higher = more signal, called active from +8 up or from −8 down; also: test concentration not given here

- compound: "Cc1cc(C)c(C(O)C2C=CC3C(=O)NC(=O)C3N2Nc2ccc(Cl)cc2Cl)c(C)c1 (centres undefined)"
  z-score: -0.143
- compound: "O=C1N(Cc2ccccc2)Cc2ccccc2[C@@H]2OC(c3ccc(OCCCO)cc3)=N[C@]12CCS(=O)(=O)c1ccccc1"
  z-score: 0.676
- compound: "COCC1=C2[C@@H](CCc3ccccc3)OB(O)C[C@@H]2[C@@H]2C(=O)C=CC(=O)[C@@H]2C1"
  z-score: -2.12
- compound: "CC(C)C(=C=CC[C@H](O)c1ccc(OCCO)cc1)C[C@H](O)c1ccccn1"
  z-score: -0.0235

---

test: binders of probe aFGF2 on microarray, primary screen, stem cell growth factor project, biochemical, small-molecule microarray, fluorescence 635/667 (AID 1067); details: higher = more signal;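 also: measures binding of biotinylated aFGF2 protein to printed compounds on slides; z-score merges feature fluorescence and signal-to-noise across triplicate slides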
Each entry below carries its recorded composite z-score.
readout: composite z-score

- compound: "C=C(/C(=C/C[C@H](OC(=O)c1ccncc1)c1ccc(CO)o1)c1cc(C(=O)OC)ccc1OC)C(C)C"
  valueReported: -0.0097
- compound: "CCCCCCc1nc(C2CC2)cc2c1[Si](C(C)C)(C(C)C)O[C@H]2c1ccccc1"
  valueReported: -0.0286
- compound: "C=CC[C@@]1(C(=O)N2CCOCC2)N=C(c2ccc(OCCCO)cc2)O[C@@H]1c1ccccc1CN=[N+]=[N-]"
  valueReported: 0.141
- compound: "COCCCNC(=O)[C@@]1(Cc2ccccc2N=[N+]=[N-])N=C(c2ccc(OCCCO)cc2)O[C@H]1c1ccccc1"
  valueReported: 0.153
- compound: "COC1OC[C@]2(C)[C@H]3C4=C(CN2C(=O)OC(C)(C)C)[C@H](C)C(CO)C(CO)C4CC[C@@H]13 (stereo partly specified)"
  valueReported: 0.236
- compound: "CC(CO)N1C(=O)[C@@H]2[C@H]3C(=O)OCC=C[C@H]3OC23C=CCN(C(C)(C)C)C(=O)[C@@H]13 (stereo partly specified)"
  valueReported: -0.128
